// provenance: the RNAGym collection of RNA variant scans (doi:10.1126/science.aae0568)

B1: tRNA (parent)
chain: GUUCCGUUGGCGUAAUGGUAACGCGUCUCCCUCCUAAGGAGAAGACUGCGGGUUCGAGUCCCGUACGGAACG

Variants of: B1
protocol-summary: yeast fitness relative to wild type (ratio to wild type); higher = fitter; tRNA-Arg(CCU), competitive growth, 37 C, YPD
This sample holds only a part of the variants without activity.
variants and their reported yeast fitness
property-label: yeast fitness

>>> val("GUUCCGUUGGCGUAACGCUAACGUGUCUCCCUCCUAAGGUGAAGACUGCGGGUUUGAGACCCGUACGGAACG")
"≤ 0.5"
>>> val("GUUCCGUUGGCGUAAUGGUAGCGCGUCUCCCUCGUAAGGAGUAGACUGCGGGUUCGAGUCCCGUACGGAACG")
"≤ 0.5"
>>> val("GUUAUGUUGGGGUAAUGGUAACGCGUCUCACUCCUAAGGAGAAGACUGCGGGUUCGAGUCCCGUACGGAACG")
"≤ 0.5"
>>> val("GUUCCGUUGGCCUAAUGGUAACGCGUCUCCCUCCUAAGGAGAAGACUGCGGGUUCGAGUCCGGUAUGGAACG")
"≤ 0.5"
